Origin of measurements: patent US20240034774A1

biological target: gp120 Bal (HIV (Bal)); assay: single-point ELISA at EC50 conc. of A-1
Observation type: ELISA A450

Here are 4 binders together with their reported answers.
INSERT INTO measurements (binder, test_value) VALUES
  ('1.13.17-1 (antibody, human IgG1, kappa, V domains shown) VH: QVQLLQSGAAVTKPGASVRVSCEASGYNIRDYFMHWVRQAPGQGLQWVGWINPKTGQPNNPRQFQGRVSLTRHASWDFDTFSFYMDLKALRSDDTAVYFCARQRSDYWDFDVWGSGTQVTVSS VL: DIQMTQSPSSLSASVGDTVTITCQANGYLNWYQQRRGKAPKLLIYDGSKLERGVPSRFSGRRWGQEYNLTINNLQPEDIATYFCQVYEFFGPGTRLDLKR', '1.02 A450'),
  ('1.32.35-1 (antibody, human IgG1, kappa, V domains shown) VH: QVQLVQSGAEVTKPGASVRVSCEASGYNIRDYFIHWWRQAPGQGLQWVGWINPKTGQPNNPRQFQGRVSLTRHASWDFDTFSFYMDLKALRSDDTAVYFCARQRTDYWDFDVWGSGTQVTVSS VL: DIQMTQSPSSLSASVGDRVTITCQANGYLNWYQQKPGKAPKLLIYDGSNLETGVPSRFSGSRWGQEYTLTISSLQPEDIATYFCQVYEFVGPGTNLDIKR', '0.89 A450'),
  ('1.36.35-1 (antibody, human IgG1, kappa, V domains shown) VH: QVQLVQSGAEVKKPGASVRVSCKASGYNIRDYFMHWWRQAPGQGLQWVGWINPKTGQPNNPRQFQGRVTMTRHASWDFDTFSAYMDLSRLRSDDTATYFCARQRTDYWDFDVWGQGTMVTVSS VL: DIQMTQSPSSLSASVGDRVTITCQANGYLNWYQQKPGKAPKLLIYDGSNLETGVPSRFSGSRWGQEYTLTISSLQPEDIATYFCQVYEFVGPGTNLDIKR', '0.89 A450'),
  ('1.33.35-1 (antibody, human IgG1, kappa, V domains shown) VH: QVQLVQSGAEVKKPGASVRVSCKASGYNIRDYFIHWWRQAPGQGLQWVGWINPKTGQPNNPRQFQGRVTLTRHASWDFDTFSFYMDLKALRSDDTATYFCARQRSDYWDFDVWGSGTQVTVSS VL: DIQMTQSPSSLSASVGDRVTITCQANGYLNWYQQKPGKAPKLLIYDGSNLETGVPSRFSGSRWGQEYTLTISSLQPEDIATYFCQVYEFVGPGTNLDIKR', '1.03 A450');

Q: Reported ELISA A450 for 1.35.35-1 (antibody, human IgG1, kappa, V domains shown) VH: QVQLVQSGAEVKKPGASVRVSCKASGYNIRDYFMHWWRQAPGQGLQWVGWINPKTGQPNNPRQFQGRVTMTRHASWDFDTFSFYMDLSRLRSDDTATYFCARQRTDYWDFDVWGQGTMVTVSS VL: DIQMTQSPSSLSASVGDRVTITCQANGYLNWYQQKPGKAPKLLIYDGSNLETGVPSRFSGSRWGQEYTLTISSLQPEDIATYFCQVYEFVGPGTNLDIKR : what is it?
Result: 0.88 A450
